For each record, write down the corresponding growth.
System: SK-OV-3 ovarian
Assay: NCI-60 one-dose screen, 48 h (100 = growth as untreated, 0 = no growth, -100 = all killed)
Settings: 10 µM
About 83,000 compounds went through this panel and 20% of them were active in at least one assay; those are over-represented in the sample as a whole.
Numbers only, in %.

Illustrative cases are given below, each with its answer.
[[record]]
molecule = "CC(C)=CCc1c2c(c(O)c3c1O[C@]14C(=C[C@@H]5C[C@H]1C(C)(C)O[C@@]4(C/C=C(/C)C(=O)O)C5=O)C3=O)C=CC(C)(C)O2"
assay_result = -38.9

[[record]]
molecule = "COc1cccc2c1cc([N+](=O)[O-])c1c(C(=O)O)cc3c(c12)OCO3"
assay_result = 113

[[record]]
molecule = "CC1=C2C(=C[C@@](C)(COC(=O)c3ccc(S(=O)(=O)F)cc3)[C@@H]2OC(=O)c2ccc(S(=O)(=O)F)cc2)C(=O)[C@](C)(O)C12CC2"
assay_result = -9.96

[[record]]
molecule = "N#Cc1nc(-c2ccccc2)oc1N1CCC(S(=O)(=O)F)CC1"
assay_result = 107

[[record]]
molecule = "CCC(C)[C@H]1C(=O)O[C@H](C(C)C)C(=O)N(C)[C@@H](C(C)C)C(=O)O[C@H](C(C)C)C(=O)N(C)[C@@H](C(C)C)C(=O)O[C@H](C(C)C)C(=O)N1C (some centres undefined)"
assay_result = -9.75


Provide growth values for the following items, in order.
1. Cc1ccc(CNc2nc3ccc(OC/C(=C/F)CN)cc3o2)cn1
2. CC(C)(O)/C=C/C(=O)[C@](C)(O)[C@H]1[C@H](O)C[C@@]2(C)[C@H]3CC=C4[C@@H](C[C@H](O)C(=O)C4(C)C)[C@]3(C)C(=O)C[C@]12C
3. C/C=C\C(=O)O[C@@H]1CC2O[C@@H]3C=C(C)C(=O)C[C@]3(C)[C@]1(C)[C@]21CO1

Response:
105
-8.31
-15.1

Query: Query growth for C[C@@H]1CCC/C=C/[C@H]2C[C@@H](O)C[C@@H]2[C@@H](O)/C=C/C(=O)O1
Response: 8.48

----------
Tested on: OVCAR-3 ovarian
Assay: NCI-60 one-dose screen, 48 h (100 = growth as untreated, 0 = no growth, -100 = all killed)
Conditions: 10 µM
This is part of a sample that, as a whole, favours compounds with a hit. Of some 83,000 tested, about 20% had one in any assay.
Parameter measured: growth (%)
Give bare numbers, in %.

Provide growth values for the following items, in order.
1. CC(=O)O[C@@H]1[C@@H]2O[C@H]2[C@@](C)(O)C(=O)[C@@H](C)C/C=C/[C@H]2[C@@H]3O[C@]3(C)[C@@H](C)C3[C@H](Cc4ccccc4)NC(=O)[C@@]312 (stereo partly drawn)
2. Cc1ccc(CNc2nc3ccc(OC/C(=C/F)CN)cc3o2)cn1

Response:
1. 54.2
2. 109

Provide growth values for the following items, in order.
1. COC1[C@@H]2C[C@H]3C(C)(C)O[C@@](C/C=C(/C)C(=O)O)(C2=O)[C@]32Oc3c(CC=C(C)C)c4c(c(O)c3C(=O)[C@H]12)C=CC(C)(C)O4 (stereo partly drawn)
2. CCCCCCCCCC(=O)N[C@@](C)(CC)C(=O)N1CCC[C@H]1C(=O)N[C@@H](CC(C)C)C(=O)N[C@@](C)(CC)C(=O)N[C@@H](CCC(N)=O)C(=O)N[C@H](CCC(N)=O)C(=O)NC(C)(C)C(=O)NC(C)(C)C(=O)N[C@@H](CCC(N)=O)C(=O)N[C@H](CC(C)C)C(=O)N[C@H](CO)CC(C)C
3. CC1=C[C@H]2O[C@@H]3C[C@@H](O)[C@](C)([C@@]2(C)CC1)[C@@]31CO1
4. CC1=C(CN(O)C(N)=O)C2=C(C)C3(CC3)[C@](C)(O)C(=O)C2=C1
5. NC1CCc2cc(O)c(O)cc2C1 (stereo not drawn)
6. COC(=O)[C@H]1[C@@H](O)[C@@]2(O)c3c(OC)cc(OC)cc3O[C@@]2(c2ccc(OC)cc2)[C@@H]1c1ccccc1

Response:
1: -90.6; 2: -74.5; 3: 38.9; 4: -3.14; 5: 101; 6: -9.22
